The measured values listed here are drawn from patent US9045524B2.

Molecular target: Caspase-1 (Homo sapiens (Human), UniProt P29466)
Sequence (P29466 120-404): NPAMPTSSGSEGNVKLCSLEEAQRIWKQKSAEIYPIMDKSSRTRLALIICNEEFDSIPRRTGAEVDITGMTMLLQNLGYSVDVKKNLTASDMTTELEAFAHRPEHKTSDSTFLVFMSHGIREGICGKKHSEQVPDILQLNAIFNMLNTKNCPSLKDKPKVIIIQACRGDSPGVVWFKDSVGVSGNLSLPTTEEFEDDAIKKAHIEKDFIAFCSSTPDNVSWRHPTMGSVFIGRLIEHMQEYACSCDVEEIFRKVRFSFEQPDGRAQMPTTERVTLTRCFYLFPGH
Assay: Caspase-1 Inhibitor Drug Screening Kit, fluorometric (AFC liberation)
Type: biochemical
Details: 30-minute incubation at 37° C.; approximations of the average values; read-out: Caspase enzymatic activity, IC50 (uM) Caspase 1
Assign IC50 to each entry below.

1. CC(C)[C@H](NC(=O)[C@@H](NC(=O)[C@H](CC(=O)O)NC(=O)OCc1ccccc1)C1Cc2ccccc2C1)C(=O)N[C@H](/C=C/S(C)(=O)=O)CC(=O)O [Compound 57] = 0.9 µM

Quick request: IC50 for each listed item, please.
1. CC(C)(C)OC(=O)C[C@@H](/C=C/S(=O)(=O)c1ccccc1)NC(=O)OC(C)(C)C [Compound 36, Boc-Asp(O-tBu)VSphenyl]
2. COC(=O)C[C@@H](/C=C/S(C)(=O)=O)NC(=O)[C@@H](NC(=O)[C@@H](NC(=O)[C@H](CC(=O)OC)NC(=O)OCc1ccccc1)c1ccccc1)C(C)C [Compound 101]

Given back:
1: > 3.33 µM; 2: > 3.33 µM

Quick request: IC50 for each listed item, please.
1. CC(C)[C@H](NC(=O)[C@H](Cc1ccccn1)NC(=O)[C@H](CC(=O)O)NC(=O)OCc1ccccc1)C(=O)N[C@H](/C=C/S(=O)(=O)c1ccccc1)CC(=O)O [Compound 85]
2. CC(C)[C@H](NC(=O)OCc1ccccc1)C(=O)N[C@H](/C=C/S(C)(=O)=O)CC(=O)O [Compound 61, z-Val-AspVSmethyl]
3. CC(C)[C@H](NC(=O)[C@H](CCC(=O)O)NC(=O)[C@H](Cc1ccc(O)cc1)NC(=O)OCc1ccccc1)C(=O)N[C@H](/C=C/S(C)(=O)=O)CC(=O)O [Compound 82]

Given back:
1. > 3.33 µM
2. > 3.33 µM
3. 0.5 µM

###

System: EAE in C57BL/6 mice
Assay: Chronic EAE mouse model (MOG35-55 immunization), daily clinical score and body weight
Type: in vivo
Set-up: key: +++: high level improvement; ++: moderate improvement; +: small improvement; −: no improvement
Details: average overall effects on the EAE model, i.p.
Experimental: The aim of this study was to verify the effectiveness of compounds in a chronic mouse animal model of EAE. […] The mice were then injected with 200 ng of pertussis toxin (List Biological Laboratories, Inc) in PBS intraperitoneally on days 0 and 2 using 25 gauge needles and scored daily using an EAE clinical scale as detailed below (Touil T et al., J Neurol Sci. 2008, 271:191-202; Antel J P et al., 1997, supra; Owens T et al., Curr Pharm Des. 2005, 1:1031-1037). […]
MEASURED_PARAMETER: Reduction in body weight loss

Below, 5 molecules whose answers are already recorded.
1. COC(=O)C[C@@H](/C=C/S(C)(=O)=O)NC(=O)[C@@H](NC(=O)[C@@H](NC(=O)[C@H](CC(=O)OC)NC(=O)OCc1ccccc1)C1Cc2ccccc2C1)C(C)C [Compound 51] = +++
2. COC(=O)C[C@@H](/C=C(\Cl)S(C)(=O)=O)NC(=O)[C@@H](NC(=O)[C@@H](NC(=O)[C@H](CC(=O)OC)NC(=O)OCc1ccccc1)c1ccccc1)C(C)C [Compound 104] = −
3. CC(C)[C@H](NC(=O)[C@H](CCC(=O)O)NC(=O)[C@H](CC(=O)O)NC(=O)OCc1ccccc1)C(=O)N[C@H](/C=C/S(C)(=O)=O)CC(=O)O [Compound 59, Z-Asp-Glu-Val-Aspmethyl vinyl sulfone] = ++
4. CC(C)[C@H](NC(=O)[C@@H](NC(=O)[C@H](CC(=O)O)NC(=O)OCc1ccccc1)C1Cc2ccccc2C1)C(=O)N[C@H](/C=C/S(C)(=O)=O)CC(=O)O [Compound 57] = +
5. CC(C)[C@H](NC(=O)[C@@H](NC(=O)[C@H](CC(=O)O)NC(=O)OCc1ccccc1)c1ccccc1)C(=O)N[C@H](/C=C/S(C)(=O)=O)CC(=O)O [Compound 53, Z-Asp-Phg-Val-Aspmethyl vinyl sulfone] = +++

Let's switch to this molecule now.
Asked: Please report the recorded Reduction in body weight loss for CC(C)[C@H](NC(=O)[C@@H](NC(=O)[C@H](CC(=O)O)NC(=O)OCc1ccccc1)c1ccccc1)C(=O)N[C@H](/C=C(\Cl)S(C)(=O)=O)CC(=O)O [Compound 123] .
Given back: +++

###

Target: UniProtKB P29466
Assay: Caspase-1 Inhibitor Drug Screening Kit, fluorometric (AFC liberation)
Format: biochemical
Details: 30-minute incubation at 37° C.; approximations of the average values; read-out: Caspase enzymatic activity, IC50 (uM) Caspase 1
Where a name gives a salt, the structure may show the parent alone. Square brackets hold non-standard residues; d marks the D form. Peptide text beside a SMILES is read from it. * marks the point of attachment. Phg = N[C@H](C(=O)O)c1ccccc1; Cbz = O=C(OCc1ccccc1)*; OtBu = CC(C)(C)O*
MEASURED_PARAMETER: IC50

Below, 4 compounds whose answers are already recorded.
1. CC(C)[C@H](NC(=O)[C@H](Cc1c[nH]c2ccccc12)NC(=O)[C@H](CC(=O)O)NC(=O)OCc1ccccc1)C(=O)N[C@H](/C=C/S(C)(=O)=O)CC(=O)O [Compound 88, Z-Asp-Trp-Val-Aspmethyl vinyl sulfone] = 0.7 µM
2. CC(C)[C@H](NC(=O)[C@H](Cc1ccc(O)cc1)NC(=O)OCc1ccccc1)C(=O)N[C@@H](C)C(=O)N[C@H](/C=C/S(=O)(=O)c1ccccc1)CC(=O)O [Compound 96, z-Tyr-Val-Ala-AspVS phenyl] = 1.3 µM
3. CC(C)(C)OC(=O)C[C@H](N)/C=C/S(C)(=O)=O.Cc1ccc(S(=O)(=O)O)cc1 [Compound 33] = > 3.33 µM
4. CS(=O)(=O)/C=C/[C@@H](N)CC(=O)O.Cc1ccc(S(=O)(=O)O)cc1 [Compound 93, AspVSmethyl] = > 3.33 µM

Quick request: IC50 for each listed item, please.
1. COC(=O)C[C@@H](/C=C/S(C)(=O)=O)NC(=O)[C@@H](NC(=O)[C@@H](NC(=O)[C@H](CC(=O)OC)NC(=O)OCc1ccccc1)C1Cc2ccccc2C1)C(C)C [Compound 51]
2. CC(C)[C@H](NC(=O)C(Cc1ccc2ccccc2n1)NC(=O)[C@H](CC(=O)O)NC(=O)OCc1ccccc1)C(=O)N[C@H](/C=C/S(=O)(=O)c1ccccc1)CC(=O)O (stereo partly shown) [Compound 70]
3. CC(C)[C@H](NC(=O)[C@H](Cc1ccc2ccccc2n1)NC(=O)[C@H](CC(=O)O)NC(=O)OCc1ccccc1)C(=O)N[C@H](/C=C/S(=O)(=O)Oc1ccccc1)CC(=O)O [Compound 65]
4. CC(C)[C@H](NC(=O)[C@H](CCC(=O)O)NC(=O)[C@H](CC(=O)O)NC(=O)OCc1ccccc1)C(=O)N[C@H](/C=C/S(C)(=O)=O)CC(=O)O [Compound 59, Z-Asp-Glu-Val-Aspmethyl vinyl sulfone]
5. CC(C)(C)OC(=O)C[C@H](N)/C=C/S(=O)(=O)c1ccccc1 [Compound 37, Asp-vinyl Phenyl Sulfone Salt Form]
6. CC(C)[C@H](NC(=O)[C@@H](NC(=O)[C@H](CC(=O)OC(C)(C)C)NC(=O)OCc1ccccc1)c1ccccc1)C(=O)O [Compound 16, Z-Asp(β-tert-butyl)-Phg-Val-OH] (Cbz-Asp(OtBu)-[Phg]-Val-OH)

Given back:
> 3 µM
> 3.33 µM
1.2 µM
1.4 µM
> 3.33 µM
> 3.33 µM

###

Assign IC50 to each entry below.
Molecular target: Caspase-8 (Homo sapiens (Human))
Sequence (Q14790 217-374): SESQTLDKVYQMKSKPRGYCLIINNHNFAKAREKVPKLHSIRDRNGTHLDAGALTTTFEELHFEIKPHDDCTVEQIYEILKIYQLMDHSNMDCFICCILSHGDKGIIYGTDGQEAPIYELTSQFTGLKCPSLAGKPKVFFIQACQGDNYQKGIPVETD
Sequence (Q14790 385-479): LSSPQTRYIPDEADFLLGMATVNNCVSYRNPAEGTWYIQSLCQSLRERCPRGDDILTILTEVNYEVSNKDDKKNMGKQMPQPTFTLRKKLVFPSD
Test: Fluorometric enzymatic assay, active recombinant Caspase-8
Assay type: biochemical
Settings: 10-point titration 0.1 nM to 3.3 μM, 30-minute incubation at 37° C.; read-out: IC50 values (μM) Caspase-8
Experimental: . In brief, each compound was serially diluted for a final test concentration range of 0.1 nM to 3.3 μM (10-point titration). […] The synthetic peptide substrate specific for each Caspase (BioVision) was then added to the respective wells, which when cleaved by the active caspase releases free AFC that can be quantified by fluorometry. After a 30-minute incubation at 37° C., the plates were read using the Flexstation 3™ with a 400 nm excitation filter and a 505 nm emission filter (cutoff at 495 nm). […]

Below, 2 molecules whose answers are already recorded.
1) CC(C)[C@H](NC(=O)[C@@H](NC(=O)[C@H](CC(=O)O)NC(=O)OCc1ccccc1)c1ccccc1)C(=O)N[C@H](/C=C(\Cl)S(C)(=O)=O)CC(=O)O = > 3.33 µM
2) CC(C)[C@H](NC(=O)[C@H](Cc1cccc2ccccc12)NC(=O)[C@H](CC(=O)O)NC(=O)OCc1ccccc1)C(=O)N[C@H](/C=C/S(C)(=O)=O)CC(=O)O = > 3.33 µM

Let's switch to this molecule now.
Asked: Please report the recorded IC50 for `CC(C)[C@H](NC(=O)[C@@H](NC(=O)[C@H](CC(=O)O)NC(=O)OCc1ccccc1)c1ccccc1)C(=O)N[C@H](/C=C/S(C)(=O)=O)CC(=O)O` .
Given back: > 3.33 µM
